Values were extracted from PubChem BioAssay (NCI).

System: MDA-MB-231 breast
method_description: NCI tumour cell line growth inhibition, 48 h; in the data active = GI50 below about 0.43 µM; inactive = the rest
Outcome codes: active, inactive

compound | target_or_test_system | group
CCCCCCn1c(-c2ccc(C(=O)O/N=C(\N)c3ccc4c(c3)OCO4)cc2)nc(-c2ccccc2)c1-c1ccccc1 | MDA-MB-231 breast | inactive
CN(C)CCN1CCC(Cc2ccccc2)CC1 | MDA-MB-231 breast | inactive
COc1ccc(-c2cc(=O)oc3c4c(ccc23)OCN(Cc2ccc(F)cc2)C4)cc1 | MDA-MB-231 breast | inactive
COc1cccc2c1O/C(=C\c1ccc([N+](=O)[O-])s1)C2=O | MDA-MB-231 breast | inactive
CCSc1nc(N=Cc2ccccc2O)c2cn[nH]c2n1 | MDA-MB-231 breast | inactive
COc1cc2c(cc1OCCCCCN1CCN(c3ncnc4ccccc34)CC1)N=CC1CCCN1C2=O (stereo not drawn) | MDA-MB-231 breast | active
COC(=O)C1=CN(CC2=CC(=O)C(C)=CC2=O)C=C(C(=O)OC)C1c1ccccc1OC | MDA-MB-231 breast | inactive
COC(=O)c1c2c(c(C)[n+]([O-])c1C)C(=O)C(NCc1ccc(Br)cc1)=CC2=O | MDA-MB-231 breast | inactive

###

System: SW-620 colon
method_description: NCI tumour cell line growth inhibition, 48 h
The entries below are paired with their reported TGI.

compound | TGI
CSC[C@H](NC(=O)COc1cccc2cnccc12)C(=O)NC(Cc1ccccc1)C(O)C(=O)N1CSC[C@H]1C(=O)NC(C)(C)C (stereo partly specified) | > 100 µM
CCOC(=O)Nc1c(C)nc2ccccn12 | > 100 µM
O=C1C(=Nc2ccc(Nc3ccccc3)cc2)Oc2ccccc21 | 4.67 µM
COc1ccc(-c2cc(=O)oc3c4c(ccc23)OCN(Cc2ccc(F)cc2)C4)cc1 | 31.8 µM
N#CC(I)CS(=O)(=O)c1ccccc1 (stereo unspecified) | 3.49 µM
CC12c3ccccc3C(OC=O)(c3ccccc31)C1(C)c3ccccc3C2(OC=O)c2ccccc21 | > 100 µM

###

The entries below are paired with their reported TGI.
System: SK-OV-3 ovarian
method_description: NCI tumour cell line growth inhibition, 48 h
assay_readout: TGI (µM)

molecule | target_or_test_system | comparison_symbol | val
O=C(CN1C(=O)CC(c2ccccc2)(c2ccccc2)C1=O)N1CCN(CCO)CC1 | SK-OV-3 ovarian | > | 100
COc1ccc(-c2cc(=O)oc3c4c(ccc23)OCN(Cc2ccc(F)cc2)C4)cc1 | SK-OV-3 ovarian | = | 52.9
O/N=C1\CCCCC1C(NO)c1ccccc1 (configuration not stated) | SK-OV-3 ovarian | > | 100
COc1nc(=O)n(C2C=CC(=O)O2)cc1F (configuration not stated) | SK-OV-3 ovarian | = | 62.3
CCOC(=O)c1c(C)c2c(n1Cc1ccccc1)CSCC2=O | SK-OV-3 ovarian | > | 100
N#CC(I)CS(=O)(=O)c1ccccc1 (configuration not stated) | SK-OV-3 ovarian | > | 100
Cc1ccc2c(c1)c1ccc3c(c1n2C)C(=O)C=CC3=O | SK-OV-3 ovarian | > | 10
C=C1C(=O)[C@@]23CC[C@@H]4[C@@]5(C)CCC[C@@]4(OC5=O)[C@@]2(C)CC[C@@H]1C3 | SK-OV-3 ovarian | = | 23.3
NNc1ncnc2nc[nH]c12 | SK-OV-3 ovarian | = | 28.4
CCN(C(=O)N[C@@H](C)C(=O)N[C@@H](Cc1ccccc1)C(=O)OC)c1ccccc1 | SK-OV-3 ovarian | > | 100
O=c1[nH]c(=O)n(C2CC(O)C(CO)O2)cc1OS(=O)(=O)C(F)(F)F (configuration not stated) | SK-OV-3 ovarian | > | 100
Cc1cccc(NC2=C(Cl)C(=O)c3nc(C)ccc3C2=O)c1 | SK-OV-3 ovarian | = | 24.2
Nc1c(S(=O)(=O)c2ccc(Cl)cc2)c2nc3ccccc3nc2n2ccnc12 | SK-OV-3 ovarian | > | 100
CC(C)N1CCN(c2ccc(OCC3COC(Cn4cncn4)(c4ccc(Cl)cc4Cl)O3)cc2)CC1 (configuration not stated) | SK-OV-3 ovarian | = | 28.9
O=C(NN1C(=O)CS(=O)(=O)C1c1ccc(C(F)(F)F)cc1)c1ccncc1 (configuration not stated) | SK-OV-3 ovarian | > | 100
CSC[C@H](NC(=O)COc1cccc2cnccc12)C(=O)NC(Cc1ccccc1)C(O)C(=O)N1CSC[C@H]1C(=O)NC(C)(C)C (some centres not stated) | SK-OV-3 ovarian | > | 100
O=[N+]([O-])c1ccccc1N=Nc1c(O)[nH]c2c(Cl)cc(Cl)cc12 | SK-OV-3 ovarian | > | 100
O=C1C=C(c2c(O)ccc3ccccc23)c2cc(O)ccc2C1=O | SK-OV-3 ovarian | = | 38.5
O=C(Nc1ncc(Cc2cccc(C(F)(F)F)c2)s1)c1ccc2c(c1)OCCO2 | SK-OV-3 ovarian | = | 46.6
COc1c(C)c(OCC=C(C)C)cc(CO)c1CO | SK-OV-3 ovarian | > | 100
COc1ccc(NC(=O)CSc2nnc(-c3ccc(NC(C)=O)cc3)o2)cc1 | SK-OV-3 ovarian | > | 100
O=C(OCC(Cl)(Cl)Cl)N1CC[C@H](C2CCCCC2)C1 | SK-OV-3 ovarian | = | 31.8
